experiment: qHTS assay for small molecule agonists of the antioxidant response element (ARE) signaling pathway measured by Nrf2-dependant transcriptional activity (AID 720636); settings: ARE-luc HepG2, Nrf2 luciferase reporter, 16 h; series mostly up to 92.4 µM;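 for activation: HepG2 cells with an ARE-driven luciferase reporter; % of control where 0% means no effect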
Results filed as inconclusive are left out. Calls of active or inactive are those of the source. Calls come from the whole dose curve; as a rule, active = well fitted activation curve with a large enough effect in the repeat runs; inconclusive = weak or mixed curves; inactive = flat fitted curve, though single readings scatter.
Use one of these outcomes when replying: yes = active, no = inactive

>  <Compound>
CCCCC(CC)COC(=O)/C=C\C(=O)OCC(CC)CCCC (stereo unspecified)

>  <Discrete Label>
no

$$$$
>  <Compound>
CC(C)Cc1c(C(=O)O)c(C(F)F)nc(C(F)(F)F)c1C1=NCCS1

>  <Discrete Label>
no

$$$$
>  <Compound>
OC1CCC(C2CCCCC2)CC1 (stereo unspecified)

>  <Discrete Label>
no

$$$$
>  <Compound>
Oc1ccc2ccccc2c1N=Nc1ccccc1

>  <Discrete Label>
yes

$$$$
>  <Compound>
CCOC(=O)CCCCCCCCC(=O)OCC

>  <Discrete Label>
no

$$$$

We now examine a further compound.
Task: Please share the test call associated with COC(=O)c1ccc(CNS(C)(=O)=O)cc1S(=O)(=O)NC(=O)Nc1nc(OC)cc(OC)n1 .
Output: no

---

Test system: GB4
Assay: qHTS profiling for inhibitors of Plasmodium falciparum proliferation (AID 504749);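 note: 0% = DMSO vehicle and full inhibition = artemisinin control; nearly all actives have a fitted effect of over 60% in size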
Settings: P. falciparum in erythrocytes, SYBR Green DNA, 72 h; series mostly up to 28.7 µM
Protocol: NIH National Institute of Allergy and Infectious Diseases [NIAID] NIH Chemical Genomics Center [NCGC] […] Because mature erythrocytes lack DNA, only Plasmodium-derived DNA is detected. NCGC Assay Protocol Summary: The SYBR Green viability assay was adapted from a method described previously (Plouffe et al., 2008). […] The following morning, fluorescence intensity at 485(14) nm excitation and 535(25) nm emission wavelengths was measured on an EnVision (Perkin Elmer) plate reader. […]
Results filed as inconclusive are left out. Calls of active or inactive are those of the source. Calls come from the whole dose curve; as a rule, active = well fitted inhibition curve with a large enough effect; inconclusive = small, poorly fitted or top-dose-only effect; inactive = flat fitted curve, though single readings scatter. Numbered stars: 1 amine (or outer) side, 2 acyl side, 3 side chain; on linkers, the order of the positions; unused ones are H or OH. Bridge positions count the residues as written; N and C are the ends. Square brackets hold non-standard residues; d marks the D form. Peptide text beside a SMILES is read from it. * marks the point of attachment. ξ: configuration not given here. ΔAla(Z-3-ureido) = NC(=O)N/C=C(\N)C(=O)O; ξDab(CH2SO3H) = NC(CCNCS(=O)(=O)O)C(=O)O; X1 = NC1=NCCC(C(N[*:1])C(=O)[*:2])N1; Heptanoyl(6-Me) = CC(C)CCCCC(=O)*; ξβ3hOrn = NCCCC(N)CC(=O)*; Dab = NCC[CH](N)C(=O)O; Dap = NC[CH](N)C(=O)O
Endpoint Name: outcome

Some entries whose results are on file:
>  <Compound>
O=C1/C(=C\c2cccs2)CCC/C1=C/c1cccs1

>  <outcome>
inactive

$$$$
>  <Compound>
CNCC(=O)NC(CCCN=C(N)N)C(=O)NC(C(=O)NC(Cc1ccc(O)cc1)C(=O)NC(C(=O)NC(Cc1cnc[nH]1)C(=O)N1CCCC1C(=O)NC(C)C(=O)O)C(C)C)C(C)C (stereo not drawn)

>  <outcome>
inactive

$$$$
>  <Compound>
CC1(C)C(/C=C/C=C/C=C/C=C2\N(CCCCS(=O)(=O)O)c3ccc4ccccc4c3C2(C)C)=[N+](CCCCS(=O)(=O)[O-])c2ccc3ccccc3c21

>  <outcome>
inactive

$$$$
>  <Compound>
NCCCC(N)CC(=O)NCC1NC(=O)C(CO)NC(=O)C(N)CNC(=O)C(C2CCN=C(N)N2)NC(=O)/C(=C/NC(N)=O)NC1=O (stereo not drawn) (H-[Dap]S[Dap](ξβ3hOrn)[ΔAla(Z-3-ureido)][X1]; lactam 1-C; configuration not given here)

>  <outcome>
inactive

$$$$
>  <Compound>
CC(=O)OCC(=O)[C@@]1(O)CCC2C3CCC4=CC(=O)CC[C@]4(C)C3=CC[C@@]21C (stereo partly drawn)

>  <outcome>
inactive

$$$$

Task: Would you kindly share the measured outcome for CCC(C)C1NC(=O)C(CCNCS(=O)(=O)O)NC(=O)C(NC(=O)C(CCNCS(=O)(=O)O)NC(=O)C(NC(=O)C(CCNCS(=O)(=O)O)NC(=O)CCCCC(C)C)C(C)O)CCNC(=O)C(C(C)O)NC(=O)C(CCNCS(=O)(=O)O)NC(=O)C(CCNCS(=O)(=O)O)NC(=O)C(C(C)CC)NC1=O (stereo not drawn) ({Heptanoyl(6-Me)}-[ξDab(CH2SO3H)]T[ξDab(CH2SO3H)][Dab][ξDab(CH2SO3H)]II[ξDab(CH2SO3H)][ξDab(CH2SO3H)]T; lactam 4-C; configuration not given here) ?
Output: inactive

Task: Name the recorded outcome for CCC(Oc1ccccc1)C(=O)NC1C(=O)N2C1SC(C)(C)C2C(=O)O (stereo not drawn) .
Output: inactive

Task: Item under review: CCC(C)C1NC(=O)C(Cc2ccc(O)cc2)NC(=O)C(N)CSSCC(C(=O)N2CCCC2C(=O)NC(CC(C)C)C(=O)NCC(N)=O)NC(=O)C(CC(N)=O)NC(=O)C(CCC(N)=O)NC1=O (stereo not drawn) . Reported outcome?
Output: inactive

---

target: Cytochrome P450 3A4 (Homo sapiens) (UniProt P08684); assay: qHTS Assay for Activators of Cytochrome P450 3A4 (AID 885); details: recombinant CYP3A4, Luciferin-PPXE luminescence, 60 min; series mostly up to 57.1 µM; note: nearly all actives have a fitted effect of over 65% in size
Sequence (P08684 whole entry, looked up): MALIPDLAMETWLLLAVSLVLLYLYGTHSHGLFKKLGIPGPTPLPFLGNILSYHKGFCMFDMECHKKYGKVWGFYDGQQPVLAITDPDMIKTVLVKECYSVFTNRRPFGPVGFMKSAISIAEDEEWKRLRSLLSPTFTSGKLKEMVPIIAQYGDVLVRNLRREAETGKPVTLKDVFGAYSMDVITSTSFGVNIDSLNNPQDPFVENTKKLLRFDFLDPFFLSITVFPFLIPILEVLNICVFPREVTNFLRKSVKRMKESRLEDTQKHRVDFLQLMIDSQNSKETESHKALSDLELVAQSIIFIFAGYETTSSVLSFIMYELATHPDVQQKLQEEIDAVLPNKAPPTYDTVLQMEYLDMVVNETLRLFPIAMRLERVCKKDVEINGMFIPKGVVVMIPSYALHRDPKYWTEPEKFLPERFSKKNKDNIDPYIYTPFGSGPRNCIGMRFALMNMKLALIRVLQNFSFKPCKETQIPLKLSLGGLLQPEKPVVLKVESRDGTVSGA
Active and inactive are the calls of the source. Calls follow the shape of the dose curve; as a rule, active = well fitted activation curve with a large enough effect; inconclusive = small, poorly fitted or top-dose-only effect; inactive = no such curve, though single readings can be large or run the other way.
Endpoint Name: activity change, positive = activation

For orientation, consider the following solved cases.
>  <Compound>
CC/C=C\CC[C@H](OC(=O)c1ccc(Br)cc1)C1=CCCCC1=O

>  <activity change, positive = activation>
-40.7% [at 11.4 µM] (inactive)

$$$$
>  <Compound>
C#CCCCO/N=C1/C[C@@H](O)[C@@H](O)[C@@H]2[C@@H]3C(=O)N(C4CCCCC4)C(=O)[C@H]3CC[C@H]12

>  <activity change, positive = activation>
-57% [at 11.4 µM] (inactive)

$$$$
>  <Compound>
COc1ccc2c(c1OC)C(Cc1ccccc1)N1CCc3cc4c(cc3C1C2)OCO4 (stereo not drawn)

>  <activity change, positive = activation>
inactive

$$$$
>  <Compound>
O=C1CCC[C@@H](C(C(=O)OCc2ccccc2)C(=O)OCc2ccccc2)C1

>  <activity change, positive = activation>
-39.2% [at 11.4 µM] (inactive)

$$$$

Task: # input compound: CCC1=C2CC[C@H]3C(=O)N(c4ccccc4)C(=O)[C@H]3[C@H]2[C@@]2(C)C(=NCC3CC3)OC(=O)N2C1=O ; wanted: its activity change, positive = activation
Output: inactive

Task: Which activity change, positive = activation is reported for this compound? CCC1=C(OC(=O)N(CC)CC)N2C(=O)OC(=NCC3CC3)[C@]2(C)[C@H]2C1=CC[C@H]1C(=O)N(CC)C(=O)[C@H]12
Output: inactive

Task: Consider the compound shown here: CC1Cc2c(-c3ccccc3)nc3c(c2CO1)CN(CCOc1ccccc1)CC3 (stereo not drawn) What is its recorded activity change, positive = activation?
Output: -39% [at 11.4 µM] (inactive)

Task: Would you mind telling me what activity change, positive = activation value was observed for C#CCCCO/N=C1/C[C@@H](O)[C@@H](O)[C@@H]2[C@@H]3C(=O)N(Cc4ccccc4)C(=O)[C@H]3CC[C@H]12 ?
Output: -103% [at 11.4 µM] (inactive)

Task: Sample O=C(O)c1sccc1S(=O)(=O)Nc1ccccc1N1CCCCC1 — what was its activity change, positive = activation?
Output: inactive

Task: Form field: reported activity change, positive = activation of CC12C=C(/C=C/c3ccc(Br)cc3)C(C)(C1)C(c1ccc(Br)cc1)CC2=O (stereo not drawn)
Output: -72.7% [at 11.4 µM] (inactive)

Task: What value of activity change, positive = activation has been reported for the following compound? COC(=O)N(/C=C/c1ccc(OC)cc1)CCc1ccc(OC)c(OC)c1
Output: -93.3% [at 11.4 µM] (inactive)

Task: GET /values?readout=activity change, positive = activation&item= COC(=O)CCCCCN1C(=O)NC(CC2CC2)C(C(=O)OCc2ccccc2)=C1C (stereo not drawn)
Output: inactive

Task: Dear colleague, I am looking for the recorded activity change, positive = activation of the following compound: CC(=O)c1c(O)cc(O)cc1O
Output: inactive

Task: Give the measured activity change, positive = activation of C/C(CCC(=O)OC[C@@H]1O[C@H](C#Cc2ccccc2)C=C[C@@H]1Oc1ccc(C)cc1)=N/OC[C@@H](O)COCc1ccco1 .
Output: -90.6% [at 11.4 µM] (inactive)

Task: # activity change, positive = activation lookup, item COc1ccc(O[C@H]2C=C[C@@H](c3ccccc3)O[C@H]2COC(=O)CC/C(C)=N/OCC[C@@H]2C=C[C@H](OC(C)=O)[C@H](COC(C)=O)O2)cc1
Output: -91.8% [at 11.4 µM] (inactive)

Task: Entry under review: CCOC(=O)OCC1OC(c2cc(C)cc(C)c2)C=CC1OC(=O)OCC (stereo not drawn) . Reported activity change, positive = activation?
Output: -69.3% [at 11.4 µM] (inactive)

Task: What measured activity change, positive = activation goes with FC(F)(F)c1ccc(CN2C[C@@H]3C(c4ccccc4)C4(c5ccccc5)CC3(C4)[C@H]2c2ccccc2)cc1 (stereo partly drawn) ?
Output: inactive

Task: I'd like to know its activity change, positive = activation. The compound in question is COC(=O)[C@@H]1C[C@@H]2CC[C@@H](O)C[C@@H]2N1Cc1ccc(Cl)cc1
Output: inactive
